# assay_comment: soluble fraction after stress (log2 fold change); higher = more stays soluble; pooled small domains, quantitative proteomics;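 also: 20 min heating vs room temperature control held 20 min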
# assay_conditions: stress: 75 degC
reported_property: soluble fraction (log2)

Take a look at these entries with their results.
sequence_string	reported_property	measurement
HMIPNEKEAARWDALTAEHTAKLNALEGDALDKVGSHEDVSIKRAGVGDAAFREKILSRTHPDDLERALST	soluble fraction (log2)	-0.0132
HMDFYVILGVDRAASLSDVKRAYRRLARKHHPDINPGDPESDAFFMRVTEAYETLVDPDRRQEYDEHG	soluble fraction (log2)	-0.75

[ask] Which soluble fraction (log2) value belongs to HMGRLNMRRIRDVLRLKFGQGLSERQVAASLGLSKTSVGTYLHRARQAGLTWPLPQGLDDDGLELLLFP ?
[reply] -1.69

----------
# assay_comment: soluble fraction after stress (log2 fold change); higher = more stays soluble; pooled small domains, quantitative proteomics
# assay_conditions: stress: 75 degC
Classification field: condition met = soluble fraction (log2) at or over -0.3; condition not met = soluble fraction (log2) under -0.3.

Take a look at these entries with their results.
sequence_string	label_class
HMGEKPTEITLSNAISVQELAEKLYVSETDIIRTLFLDGIIVNINQVLDLETAVKVGDQLGVTITIVE	condition not met
HMGVGVTAPLAGNIFKIVKQPGDVVASGDVVLILEAMKMETEIRAAAGGTVKQVLVREGDAVDAGHTLMTL	condition not met
HMNIDNTWQPSEDVVEILTRSGINEDFINELIPEFIVYWTERPGTLVSYNSKFIEHVRLKWAQHSAEI	condition not met
HMGKVNTRNRNEGKFYKNGKKKPANWEYRFEAAPVNGKRQQISDAGYPTEKAAYEAGIAAYEKYNSAGSVN	condition met
HMSNYIVELSSSEKIDDIDNNNNLINSFFSKSDSQWEYKLVFKNKNEMDVFVKKISTNNKIISYKTSS	condition not met

[ask] Say whether HMQAGPEDIIRAKLKTAMPEAQIISIRPTPAGLYQVNAKGYESVFVTADGRYLFQGDLLEIQGDRIVNL shows soluble fraction (log2) of -0.3 or more.
[reply] condition met

[ask] Say whether HMDTQKYDLNDDGRFDVQDVTYLQIKIAGDGELTDNQKKIADYNNDGKIDVQDVTSAQMLIS shows soluble fraction (log2) of -0.3 or more.
[reply] condition met

[ask] Say whether HMFLDKDTLNQLYRFGIALTGNEQDSQDVLHTAIERFLRNKPQQINQQAAYIRTIMRNYWYDELRKLKTQ shows soluble fraction (log2) of -0.3 or more.
[reply] condition not met

[ask] Say whether HMKSVFQPIYEDLLSRIQDGRLLPGMPLPSENALAVQYGTSRPTIRRAIGLLVEKSLVIRQPGIGSIVAS shows soluble fraction (log2) of -0.3 or more.
[reply] condition not met

[ask] Say whether HMAIKTGAVTGHGVKVRKGPSTNEKAIHDVLYGSRLQILEEKNGFLKAKFEDGTTGWISKQFVTTTDKNLL shows soluble fraction (log2) of -0.3 or more.
[reply] condition met

[ask] Say whether HMSSFSESFHKALNNLDDKHKSVFSLRHFEGFSMKEIAETLNINEGTVKSRLFYATKTLAGALKEF shows soluble fraction (log2) of -0.3 or more.
[reply] condition not met

[ask] Say whether HMEGNFFADIRQELMRELDQEAEWSDVQILEKIDDLVLLRTRRSSLTVNEKEQLRKELFYSVRK shows soluble fraction (log2) of -0.3 or more.
[reply] condition not met

----------
# assay_comment: soluble fraction after stress (log2 fold change); higher = more stays soluble; pooled small domains, quantitative proteomics
# assay_conditions: stress: 75 degC
Class (by soluble fraction (log2)) -- L = under -0.3, M = from -0.3 up to 0.06, H = 0.06 and over

Take a look at these entries with their results.
sequence_string	label_class
HMDNEIRIPLPSLQRDGFSIGTREDDGSQLVRIMSAGSFGGMIRSFRLPEGMRIEGAKWEGEIVSIRL	M
HMQMLQDPFLNALRKEHVPVSIYLVNGIKLQGQVESFDQYVVLLRNTSVTQMVYKHAISTIVPARAVSL	L
HMETGELQQILEDVFSKNIGIVQDKREAAFSILMGMIMAKSRGRADGALVSTLLKKKLTEFLATSDQVR	M
HMPTITSPMVGTFYRAPSPGAAPFIEVGDTVKKGQVIGIIEAMKLLNEVEADKDGVVQAFAAENGEL	L
HMPRYQQIARQLKTAIEHGELKPGARLPSSRTWSQELGISRSTVESAYTELVAQGWLERRGQAGTFVSAQL	L
HMPVEFVKISIKPGHPWENQFVRDIVSLPDLLMVLILRGEERIIPNGNTKILVGDKIVLSALSPG	L
HMAEQLGNSRTANMVMLGAMIERTGVISIDSAMEALKATFGPKKEHLLPINRQAMEAGAAAARAV	H
HMDDIVPHSTKNHIIKTFLSLMNSLDIITDKNKKSLNQNVHIIFNKFNFSKKEANLFIGVLNRIQKALK	H

[ask] Determine which band this sequence sits in: HMSQSIGQEKALSIALADAGVQKENALGLEVKGEYDDGQLLYEVEFRAGGVEYEYEVRASDGRIVKAERD
[reply] H

[ask] Determine which band this sequence sits in: HMSEQSEALRTGLDQLPINQRTALTLFHLHELNQSEVAKIMNISVGAVESLLFRGRQKMKQLLTSD
[reply] L

[ask] Determine which band this sequence sits in: HMAAEGARNNSLFNSLRERALEVSSHNELEQIAFKMNETNIPPLRASEVISVVNSVWKNRISNQIIP
[reply] H

[ask] Determine which band this sequence sits in: HMGSYANAWQLAEHAAKDMLGEVIYLLDGKEVHAGILETMSAESIKTASAENVDGKVVIRLVSK
[reply] M

[ask] Determine which band this sequence sits in: HMDDFITLVIHTPAHAQNLRNILESHGMEVRLEDFVSFKSPVAVAQRVKIRPKDLPLALKIIESGE
[reply] H

----------
Assignment: determine reported soluble fraction (log2) for the given sequences.
# assay_comment: soluble fraction after stress (log2 fold change); higher = more stays soluble; pooled small domains, quantitative proteomics
# assay_conditions: stress: 75 degC

sequence_string	soluble fraction (log2)
HMYDFGVILQKLRKEKGFTQEQLARLIHKESSIISRYEKGLQNPTFETVKEFAAIFNVSMDYLAG	-1.49

// batch mode: one soluble fraction (log2) value per listed entry
1. HMATVHVDGIQYDFSSPEQAKEFAYKWAKKHNLTWEVHGETIHIK
2. HMPSEAVQNIIGNVKSKRRVATIGQARGLASNVIKEGKFDNVSNTAMVNRLIDLGIISNSIGYQ
3. HMEQINVTIQTEKGRIDKVLSEHLPNHSRSQIQQWLKEKHVTVNGETVRANYKVTAGDEIVVTIPEPEV

[reply]
-0.225
-0.0616
0.546

----------
Assignment: determine reported soluble fraction (log2) for the given sequences.
# assay_comment: soluble fraction after stress (log2 fold change); higher = more stays soluble; pooled small domains, quantitative proteomics
# assay_conditions: stress: 75 degC
One number for each entry.

// batch mode: one soluble fraction (log2) value per listed entry
1. HMGSKKITIYVSGEVKNPGIVTLNSDQRLASAVEKLGGVTENADMNNINLAMKLEDEMHYIIPKKGEK
2. HMLIPTISVTKEGQLRFENIPVSWEELGTRLRDVSDLDKIKIYADAESDALTISEIMKTAANVGIVQFVLV
3. HMNVRAYKVSKESELTVEEKLEAVRGYGVADLLYVIREFEENPGKYEPEVIKLIVQQLTDKGIM
4. HMQSAEMTLDREGQPVQVRVELTGNEARITFLSDQEQTREALDAGMAQLRELLEQQGMVLAGVTV
5. HMYDASELNKALEEAKKLDLNNYTEESSEALKNAISKAEEALLSKDKETINSALEELNKAMDSL

[reply]
[-0.0389, -1.03, 0.0392, -0.00816, 0.512]

----------
# assay_comment: soluble fraction after stress (log2 fold change); higher = more stays soluble; pooled small domains, quantitative proteomics
# assay_conditions: stress: 75 degC
reported_property: soluble fraction (log2)
Numbers only.

sequence_string	soluble fraction (log2)
HMTTAGTAIVQTGNSGKLNLREQAYANAGILGRYSNGTAVTVLQKGAAWSYVEVKGQKGYMMSKFLKFTS	-1.53
HMHMKTIEWDSLVLIMYKDMKYLKRINEGQSFHGKGGMLNYADLIGKTYGIRFGQYEIFEPSLEDIVMYG	-0.0889
HMLERPLKLKSHYVSAINEKVAVQFQAGEERKSIMGTLTEVNQDTIVIDDRGSVTEIPFKSIIRAKTVF	-0.621

Please turn your attention to the following entry.
[ask] Which soluble fraction (log2) value belongs to HMDGLPYPEAAEEPIAQVARNLGMDATRVSIALQEAKLIFRNLDETLAEIAANNGTTPQVVYDAIRHLEPP ?
[reply] -0.248

----------
# assay_comment: soluble fraction after stress (log2 fold change); higher = more stays soluble; pooled small domains, quantitative proteomics
# assay_conditions: stress: 75 degC
reported_property: soluble fraction (log2)
Answers are plain numbers.

Take a look at these entries with their results.
sequence_string	measurement
HMDGVLLDHLDGFVTTRRGVEAWLEQPTSFNKPSILLVAADGESTRRAIPSIAFGYDFASRHDIPAYDAG	-0.44
HMIAVSQEQIKQIIVDDPSFHDANGKFSQALLTQYLNQRRMSEDQFVEEIRDQFLFQNLQNLVQNG	0.278
HMFERISELLTDEELAVYKRGRNANASSVPKHADIADYRRATGVEALFGYLYIKGEIDRINQLFELA	-0.154
HMKVSKNKIVKGMGFHHVALKAVDFDASFKFYTEGLGMKFYTSWGEGNGKIAMLDLGDGGILELFA	0.0409
HMTIGLLISKARTNSGLTQAELATRAGTSQAAIARYESDRVSPSVSTLERVLRAAGEELVISSS	-0.209

// batch mode: one soluble fraction (log2) value per listed entry
1. HMKTSVGSKMMVMANNLSIRKSANLLSEKLADLSKGDMVEYISSTNGWNKVRYNGYVGYVSSYYLKDTGEV
2. HMSESLRDLVLSLIPEDGSTIGNRALITRLREDLPDLTDEDYHEVRDQLIAEGVLAKGRGQGGSVARANG

[reply]
[-2.21, 0.311]
